Where do the numbers come from? From patent US20150197497A1.

# Tested Target: HDAC7 (Homo sapiens)
# Construct: Recombinant, full-length HDAC protein (BPS Biosciences) was incubated with fluorophore conjugated substrate
# Sequence (Q8WUI4 1-952): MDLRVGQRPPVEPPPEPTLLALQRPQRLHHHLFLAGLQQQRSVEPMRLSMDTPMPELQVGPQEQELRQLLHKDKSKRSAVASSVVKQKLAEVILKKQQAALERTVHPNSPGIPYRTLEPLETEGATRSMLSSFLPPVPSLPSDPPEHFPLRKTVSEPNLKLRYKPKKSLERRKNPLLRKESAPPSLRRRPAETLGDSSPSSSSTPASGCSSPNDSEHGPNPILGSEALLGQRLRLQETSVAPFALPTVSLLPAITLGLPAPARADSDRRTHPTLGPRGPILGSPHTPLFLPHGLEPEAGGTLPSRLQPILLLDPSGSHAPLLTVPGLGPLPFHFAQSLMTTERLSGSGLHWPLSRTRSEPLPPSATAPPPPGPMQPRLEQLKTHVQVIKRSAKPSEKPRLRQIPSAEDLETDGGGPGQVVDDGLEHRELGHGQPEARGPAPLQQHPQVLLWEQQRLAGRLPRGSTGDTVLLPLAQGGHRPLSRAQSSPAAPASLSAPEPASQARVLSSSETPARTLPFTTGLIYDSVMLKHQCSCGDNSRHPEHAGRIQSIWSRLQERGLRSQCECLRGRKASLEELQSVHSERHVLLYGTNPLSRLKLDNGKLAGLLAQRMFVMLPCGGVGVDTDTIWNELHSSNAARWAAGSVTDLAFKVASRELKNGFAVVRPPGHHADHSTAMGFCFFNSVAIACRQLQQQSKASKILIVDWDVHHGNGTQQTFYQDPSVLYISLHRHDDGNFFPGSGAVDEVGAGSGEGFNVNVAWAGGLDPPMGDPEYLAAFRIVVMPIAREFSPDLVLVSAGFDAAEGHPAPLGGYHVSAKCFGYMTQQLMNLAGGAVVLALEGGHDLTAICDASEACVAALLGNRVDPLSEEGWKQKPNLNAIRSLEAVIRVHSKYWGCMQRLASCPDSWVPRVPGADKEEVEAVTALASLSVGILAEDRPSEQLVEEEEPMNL
# Assay Explanation: In vitro HDAC enzyme inhibition assay, HDAC7
# Reported Conditions: recombinant full-length HDAC7, substrate MAZ1675 22 μM
Mark each entry true if its IC50 sits below 200 nM, and false for all others.

O=C(NO)c1ccc(Cn2c(=O)[nH]c3cc(C(F)(F)F)ccc32)cc1 [B6] : false

Confirm or reject: IC50 of O=C(NO)c1ccc(Cn2c(C(F)(F)F)nc3ccccc32)cc1 [A1] lies strictly below 200 nM
true

Confirm or reject: IC50 of O=C(NO)c1ccc(Cn2c(C(F)(F)F)nc3cc(Br)ccc32)cc1 [A5] lies strictly below 200 nM
false

Confirm or reject: IC50 of O=C(NO)c1ccc(Cn2c(=O)[nH]c3cc(F)ccc32)cc1 [B3] lies strictly below 200 nM
false

Confirm or reject: IC50 of O=C(NO)c1ccc(Cn2c(C(F)(F)F)nc3cc(Cl)ccc32)cc1 [A4] lies strictly below 200 nM
false
